Some molecules, each annotated with its measured DC50.
system-name: HiBit-KRAS^G12C (Homo sapiens, UniProt P01116, G12C)
Sequence (P01116 1-186 isoform P01116-2 G12C limits assumed): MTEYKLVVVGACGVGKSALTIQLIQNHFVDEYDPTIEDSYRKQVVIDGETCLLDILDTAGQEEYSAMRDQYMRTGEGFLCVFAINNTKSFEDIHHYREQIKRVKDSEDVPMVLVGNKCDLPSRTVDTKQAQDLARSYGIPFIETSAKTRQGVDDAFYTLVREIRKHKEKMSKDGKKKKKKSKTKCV
assay-notes: HiBit degradation assay in SW1573 HiBit-KRas^G12C cells
Assay type: cell-based
Parameters: expressed in transfected cells; host or cells: SW1573 (clone E6), modified pcDNA3.1 vector, TK promoter
assay-setup: read-out: KRas^G12C-HiBiT (SW1573; 0.5% DMSO) IC50***; SW1573 HiBit-KRas^G12C, 0.5% DMSO, 24 hours

C=CC(=O)N1CCN(c2nc(OCCN3CCC(COCC(=O)N[C@H](C(=O)N4C[C@H](O)C[C@H]4C(=O)N[C@@H](C)c4ccc(-c5ccnn5C)cc4)C(C)(C)C)CC3)nc3c(F)c(-c4cc(O)cc5ccccc45)c(Cl)cc23)C[C@@H]1CC#N (atropisomer, axis not shown) [Compound 136] = 100 to 1000 nM

Q. Name the reported DC50 value associated with the molecule C=CC(=O)N1CCN(c2nc(OCCN3CCC4(CC3)CN(c3cc([C@H](C(=O)N5C[C@H](O)C[C@H]5C(=O)N[C@@H](C)c5ccc(-c6scnc6C)cc5)C(C)C)on3)C4)nc3c(F)c(-c4cc(O)cc5ccccc45)c(Cl)cc23)C[C@@H]1CC#N (atropisomer, axis not shown) [Compound 107]
A. < 100 nM

----------
system-name: HiBit-KRAS^G12C (Homo sapiens, UniProt P01116, G12C)
assay-notes: HiBit degradation assay in MiaPaCa-2 HiBit-KRas^G12C cells
Type: cell-based
assay-setup: MIA PaCa-2, MiaPaCa-2 HiBit-KRas^G12C cells; 0.5% DMSO; 24 hours; maximum degradation; read-out: KRas^G12C-HiBiT (MiaPaCa; 0.5% DMSO) DMax
measured-endpoint: Dmax

C=CC(=O)N1CCN(c2nc(OCCN3CC[C@@H](COCC(=O)N[C@H](C(=O)N4C[C@H](O)C[C@H]4C(=O)N[C@@H](C)c4ccc(-c5scnc5C)cc4)C(C)(C)C)C3)nc3c(F)c(-c4cc(O)cc5ccccc45)c(Cl)cc23)C[C@@H]1CC#N = 35 to 70%

Q. Name the reported Dmax value associated with the molecule `C=CC(=O)N1CCN(c2nc(OCCN3CCC(CN(C)c4cc([C@H](C(=O)N5C[C@H](O)C[C@H]5C(=O)N[C@@H](C)c5ccc(-c6scnc6C)cc5)C(C)C)on4)CC3)nc3c(F)c(-c4cc(O)cc5ccccc45)c(Cl)cc23)C[C@@H]1CC#N`
A. > 70%

----------
system-name: HiBit-KRAS^G12C (Homo sapiens, UniProt P01116, G12C)
assay-notes: HiBit degradation assay in MiaPaCa-2 HiBit-KRas^G12C cells
Type: cell-based
assay-setup: MIA PaCa-2, MiaPaCa-2 HiBit-KRas^G12C cells; 0.5% DMSO; 24 hours; maximum degradation; read-out: KRas^G12C-HiBiT (MiaPaCa; 0.5% DMSO) DMax
measured-endpoint: Dmax

Solved cases below.
C=C(F)C(=O)N1CCN(c2nc(O[C@H](C)CN3CCC(COc4cc([C@H](C(=O)N5C[C@H](O)C[C@H]5C(=O)N[C@@H](C)c5ccc(-c6scnc6C)cc5)C(C)C)on4)CC3)nc3c(F)c(-c4cc(O)cc5ccccc45)c(Cl)cc23)C[C@@H]1CC#N [Compound 155] = < 35%
C=CC(=O)N1CCN(c2nc(OCCN3CCC(COCC(=O)N[C@H](C(=O)N4C[C@H](O)C[C@H]4C(=O)N[C@@H](C)c4ccc(-c5scnc5C)cc4)C(C)(C)C)CC3)nc3c(F)c(-c4cc(O)cc5ccccc45)c(Cl)cc23)CC1 [Compound 63] = 35 to 70%
C=CC(=O)N1CCN(c2nc(OC[C@@H]3CCCN3CCCCOCC(=O)N[C@H](C(=O)N3C[C@H](O)C[C@H]3C(=O)N[C@@H](C)c3ccc(-c4scnc4C)cc3)C(C)(C)C)nc3c(F)c(-c4cc(O)cc5ccccc45)c(Cl)cc23)C[C@@H]1CC#N [Compound 100] = < 35%
C=CC(=O)N1CCN(c2nc(O[C@H](C)CN3CCC(COCC(=O)N[C@H](C(=O)N4C[C@H](O)C[C@H]4C(=O)N[C@@H](C)c4ccc(-c5scnc5C)cc4)C(C)(C)C)CC3)nc3c2CCN(c2cc(O)cc4ccccc24)C3)C[C@@H]1CC#N [Compound 29] = 35 to 70%
C=CC(=O)N1CCN(c2nc(OCCN3CCC(COCC(=O)N[C@H](C(=O)N4C[C@H](O)C[C@H]4C(=O)N[C@@H](C)c4ccc(-c5scnc5C)cc4)C(C)(C)C)CC3)nc3c(F)c(-c4c(C)ccc5[nH]ncc45)c(Cl)cc23)C[C@@H]1CC#N [Compound 128] = 35 to 70%

Q. Name the reported Dmax value associated with the compound C=CC(=O)N1CCN(c2nc(OCCN3CCC(C)(COCC(=O)N[C@H](C(=O)N4C[C@H](O)C[C@H]4C(=O)N[C@@H](C)c4ccc(-c5scnc5C)cc4)C(C)(C)C)CC3)nc3c(F)c(-c4cc(O)cc5ccccc45)c(Cl)cc23)C[C@@H]1CC#N [Compound 149]
A. > 70%

Q. Name the reported Dmax value associated with the compound C=CC(=O)N1CCN(c2nc(O[C@@H]3CCC[C@H]3N3CCC(COCC(=O)N[C@H](C(=O)N4C[C@H](O)C[C@H]4C(=O)N[C@@H](C)c4ccc(-c5scnc5C)cc4)C(C)(C)C)CC3)nc3c(F)c(-c4cc(O)cc5ccccc45)c(Cl)cc23)C[C@@H]1CC#N [Compound 130]
A. 35 to 70%

Q. Name the reported Dmax value associated with the compound C=CC(=O)N1CCN(c2nc(OCCN3CCC(F)(COCC(=O)N[C@H](C(=O)N4C[C@H](O)C[C@H]4C(=O)N[C@@H](C)c4ccc(-c5scnc5C)cc4)C(C)(C)C)CC3)nc3c(F)c(-c4cc(O)cc5ccccc45)c(Cl)cc23)C[C@@H]1CC#N [Compound 150]
A. > 70%
